# experimental.details: pharmacokinetic behavior in baboons, 20 mg/kg (Tables 4 and 6)
# Format: in vivo
# condition.details: baboon, plasma, 20 mg/kg, 30 minutes
The threshold is inclusive: concentration at 0.5 h of exactly 40 µg/mL counts as TRUE; values below receive FALSE.

Solved entries (count: 5):
compound	assigned.category
CC(C)(ON=C(C(=O)NC1C(=O)N2C(C(=O)O)=C(COC(=O)c3ccc(NC(=O)CN)cc3)CSC12)c1csc(N)n1)C(=O)O (stereo not drawn) [Product A, reference compound]	TRUE
CC(C)(ON=C(C(=O)NC1C(=O)N2C(C(=O)O)=C(COC(=O)c3ccc(NC(=O)CCN)cc3)CSC12)c1csc(N)n1)C(=O)O (stereo not drawn) [Product B, reference compound]	FALSE
CC(C)(O/N=C(\C(=O)NC1C(=O)N2C(C(=O)O)=C(COC(=O)c3ccc(NC(=O)[C@@H](N)CCCN)c(O)c3)CSC12)c1csc(N)n1)C(=O)O (stereo partly drawn) [SR 44128]	TRUE
CC(C)(O/N=C(\C(=O)NC1C(=O)N2C(C(=O)O)=C(COC(=O)c3ccc(NC(=O)CCN)c(O)c3)CSC12)c1csc(N)n1)C(=O)O (stereo not drawn) [SR 43904]	TRUE
CC(C)(O/N=C(\C(=O)NC1C(=O)N2C(C(=O)O)=C(COC(=O)c3ccc(NC(=O)CN)c(O)c3)CSC12)c1csc(N)n1)C(=O)O (stereo not drawn) [SR 43753]	TRUE

Data request: Given the entry CC(C)(O/N=C(\C(=O)NC1C(=O)N2C(C(=O)O)=C(COC(=O)c3ccc(NC(=O)C(N)CCN)c(O)c3)CSC12)c1csc(N)n1)C(=O)O (stereo not drawn) [SR 44130] , answer whether its concentration at 0.5 h meets or surpasses 40 µg/mL.
Data returned: TRUE

---

# experimental.details: pharmacokinetic behavior in baboons, 20 mg/kg (Tables 4 and 6)
# Type: in vivo
# condition.details: baboon, plasma, 20 mg/kg, 180 minutes
observation.type: concentration at 3 h
Note: state the figure and append the unit.

Below: 2 compounds and their reported concentration at 3 h.
compound	recorded.measurement
CC(C)(O/N=C(\C(=O)NC1C(=O)N2C(C(=O)O)=C(COC(=O)c3ccc(NC(=O)C(N)CCN)c(O)c3)CSC12)c1csc(N)n1)C(=O)O (stereo not drawn) [SR 44130]	138 µg/mL
CC(C)(O/N=C(\C(=O)NC1C(=O)N2C(C(=O)O)=C(COC(=O)c3ccc(NC(=O)CN)c(O)c3)CSC12)c1csc(N)n1)C(=O)O (stereo not drawn) [SR 43753]	126 µg/mL

Turning to the following compound.
Data request: What does the data say about its concentration at 3 h? Entry: CC(C)(ON=C(C(=O)NC1C(=O)N2C(C(=O)O)=C(COC(=O)c3ccc(NC(=O)CCN)cc3)CSC12)c1csc(N)n1)C(=O)O (stereo not drawn) [Product B, reference compound]
Data returned: 17.6 µg/mL
